Molecular target: SSTR4 (Homo sapiens)
Construct: host or cells: CHO-K1
Sequence (P31391 whole entry): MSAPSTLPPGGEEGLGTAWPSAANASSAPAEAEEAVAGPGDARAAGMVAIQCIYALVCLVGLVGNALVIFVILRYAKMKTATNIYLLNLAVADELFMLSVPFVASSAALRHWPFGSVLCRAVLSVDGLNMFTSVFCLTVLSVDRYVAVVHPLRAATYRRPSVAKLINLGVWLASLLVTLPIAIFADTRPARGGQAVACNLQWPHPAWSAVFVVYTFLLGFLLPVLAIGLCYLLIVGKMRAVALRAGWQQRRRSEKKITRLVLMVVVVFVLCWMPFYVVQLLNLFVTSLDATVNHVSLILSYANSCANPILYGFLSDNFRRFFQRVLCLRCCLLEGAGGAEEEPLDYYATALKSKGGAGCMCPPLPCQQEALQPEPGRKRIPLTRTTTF
Assay: SSTR4 I-125 somatostatin competition binding assay (CHO-K1 membranes)
Settings: competition with I-125 somatostatin, membranes from CHO-K1 overexpressing SSTR4; read-out: SSTR4 Binding pIC50 (converted)
Protocol: SSTR4 I-125 Somatostatin Competition Binding Assay Membranes from CHO-K1 cells overexpressing SSTR4 are purchased from Perkin Elmer (catalog number ES-524-M400UA). Test compounds are suspended in DMSO and then diluted in assay buffer (25 mM HEPES pH 7.4, 10 mM MgCl2, 1 mM CaCl2), 0.5% BSA) plus 0.2 nM I-125 labeled somatostatin (Perkin Elmer catalog number NEX389). […] The filters are then read in a MicroBeta scintillation counter. […]
Metric name: log10 of IC50 (log10 of the value in nM)
In our notation, the value equals log10 of IC50 in nM.

Take a look at these entries with their results.
molecule CN1CCCCC1CC(=O)NC(C)(C)c1nn(C)c2ccccc12 (centres unmarked) [Example 2] , log10 of IC50 observed: 1.80

molecule Cc1cccc(C(C)(C)NC(=O)C[C@H]2CCCN2C)c1Cl [Example 91] , log10 of IC50 observed: 2.60

molecule Cc1cccc2c(C(C)(C)NC(=O)CC3CCCCN3C)nccc12 (centres unmarked) [Example 7] , log10 of IC50 observed: 1.90

molecule Cc1cccc(C(C)(C)NC(=O)[C@@H](C)CN2CCC2)c1Cl (single isomer, unassigned) [Example 145] , log10 of IC50 observed: 1.30

molecule C[C@@H](CN1CCC1)C(=O)NC(C)(C)c1cccc(F)c1 (single isomer, unassigned) [Example 153] , log10 of IC50 observed: 1.90

Next:
molecule Cc1ccc([C@H](CF)NC(=O)CCN2CCC2)cc1 (single isomer, unassigned) [Example 175] , log10 of IC50 observed: 2.20

molecule CN1CCC[C@@H]1CC(=O)NC(C)(C)c1cccc(Cl)c1Cl [Example 96] , log10 of IC50 observed: 2.30

molecule O=C(CCN1CCC1)NC(c1cccc(F)c1)C(F)(F)F (single isomer, unassigned) [Example 208] , log10 of IC50 observed: 1.60
